tested on: MV4-11; assay: cells; conditions: Homo sapiens, MV4-11, 168 h
Description: Antiproliferative activity against human MV4-11 cells after 168 hrs by MTS assay
Each entry below carries its recorded log10 IC50.
Readout Kind: log10 IC50 (log10 of the value in µM)

>  <Smiles>
CC1(C)CN=C(N2CCN(c3ncnc4sc(CC(F)(F)F)cc34)CC2)S1

>  <Recorded Result>
0.41

$$$$
>  <Smiles>
FC(F)(F)Cc1cc2c(N3CCC(N[C@@H]4C[C@H]4c4ccccc4)CC3)ncnc2s1

>  <Recorded Result>
-0.54

$$$$
>  <Smiles>
FC(F)(F)Cc1cc2c(N3CCC(N[C@H]4C[C@@H]4c4ccccc4)CC3)ncnc2s1

>  <Recorded Result>
0.86

$$$$
>  <Smiles>
FC(F)(F)Cc1cc2c(N[C@H]3CC[C@@H](N[C@@H]4C[C@H]4c4ccccc4)CC3)ncnc2s1

>  <Recorded Result>
0.40

$$$$
>  <Smiles>
Fc1ccc([C@@H]2C[C@H]2NC[C@H]2CC[C@H](Nc3ncnc4sc(CC(F)(F)F)cc34)CC2)cc1F

>  <Recorded Result>
0.84

$$$$
>  <Smiles>
FC(F)(F)Cc1cc2c(N[C@H]3CC[C@H](CN[C@H]4C[C@@H]4c4ccccc4)CC3)ncnc2s1

>  <Recorded Result>
0.74

$$$$
>  <Smiles>
FC(F)(F)Cc1cc2c(N3CCC(CN[C@@H]4C[C@H]4c4ccccc4)CC3)ncnc2s1

>  <Recorded Result>
1.06

$$$$
>  <Smiles>
FC(F)(F)Cc1cc2c(N[C@H]3CC[C@@H](N[C@H]4C[C@@H]4c4ccccc4)CC3)ncnc2s1

>  <Recorded Result>
0.53

$$$$
>  <Smiles>
FC(F)(F)Cc1cc2c(N3CCC(CN[C@H]4C[C@@H]4c4ccccc4)CC3)ncnc2s1

>  <Recorded Result>
0.78

$$$$
>  <Smiles>
FC(F)(F)Cc1cc2c(N[C@H]3CC[C@H](N[C@@H]4C[C@H]4c4ccccc4)CC3)ncnc2s1

>  <Recorded Result>
-0.31

$$$$
